Source of measurements: PubChem BioAssay (NCI)

Test system: HCT-116 colon
experimental.details: NCI-60 one-dose screen, 48 h
study.conditions: 10 µM unless noted
Compounds without any hit were thinned out: in the full panel of roughly 83,000, 20% have a hit. Calls of active or inactive are those of the source. The calls were made as follows: active = growth percent below 10; inactive = the rest.
Hello, when you answer, please use one of the following outcomes: yes (1) for active, no (0) for inactive

Assay result, entry `COC(=O)/C(CCC=C(C)C)=C1\[C@@H](OC(C)=O)C[C@@]2(C)[C@H]1CC(=O)[C@H]1[C@@]3(C)CC[C@H](NCc4ccccc4)[C@@H](C)[C@@H]3CC[C@@]12C` — outcome? no (0)

Assay result, entry `O=C(Nc1ccccc1O)c1ccc(-c2ccc(Cl)cc2Cl)o1` — outcome? no (0)

Assay result, entry `O=c1c(-c2nc3ccccc3[nH]2)cc2ccccc2n1Cc1cn(Cc2ccc(N3CCOCC3)cc2)nn1` — outcome? no (0)

Assay result, entry `CCOC(=O)c1sc(-c2ccc(OS(=O)(=O)c3ccccc3[N+](=O)[O-])c(C=O)c2)nc1C` — outcome? no (0)

Assay result, entry `COc1ccc(Cn2c(Br)c3c(c2-c2cc(OC)c(OC)c(OC)c2)CCc2sc(NC(=O)c4ccc(OC)cc4)nc2-3)cc1` — outcome? no (0)

Assay result, entry `O=C(COc1cc(O)c2c(=O)cc(-c3ccccc3)oc2c1)Nc1ccccc1C(F)(F)F` — outcome? yes (1)

Assay result, entry `COc1nccc2cc3c(=O)n4c(cc5ccccc54)c(=O)n3c12` — outcome? no (0)

Assay result, entry `NC(=O)CSc1nc(-c2ccc(F)cc2)cc(-c2ccco2)n1` — outcome? no (0)

Assay result, entry `COc1cc(C(=O)Nc2ccc(-c3nc4ccccc4[nH]3)cc2)cc(OC)c1OC` — outcome? no (0)

Assay result, entry `NS(=O)(=O)c1ccc(CCN=C=S)cc1` — outcome? yes (1)

Assay result, entry `O=c1oc2ccc(F)cc2c(=O)n1-c1ccc(Br)cc1F` — outcome? yes (1)

Assay result, entry CN1C(=O)N(C)C2C1NN=c1s/c(=C\c3ccc(Cl)cc3Cl)c(=O)n12 (stereo not given) — outcome? yes (1)

Assay result, entry `N#C/C(=C1\SC(=O)CN1c1ccccc1)c1nc2ccccc2s1` — outcome? no (0)

Assay result, entry OCCNc1nc(Nc2ccc(C3=NN(c4cc(Cl)cc(Cl)c4)C(c4ccc(C(F)(F)F)cc4)C3)cc2)nc(N2CCOCC2)n1 (stereo not given) — outcome? no (0)

Assay result, entry `CCC(C)(C)C(=O)O[C@H]1C[C@@H](C)C=C2C=C[C@H](C)[C@H](CC[C@@H]3CC=CC(=O)O3)[C@H]21` — outcome? yes (1)

Assay result, entry COc1cc(C2C(C#N)=C(N)OC3=C2C(=O)c2ccccc2C3=O)cc(OC)c1OC (stereo not given) — outcome? no (0)

Assay result, entry COC(=O)C1(C)CCC[C@]2(C)[C@H]3C[C@H]4C(C(C)C)=C[C@]3(CC[C@@H]12)[C@H]1[C@@H]4[C@@H](OCC#CCN2CCOCC2)CC[C@@H]1OCC#CCN1CCOCC1 (stereo not given in full) — outcome? no (0)

Assay result, entry `NC1(N2SC(S)=C3CCCC=C32)CCCCC1` — outcome? no (0)

Assay result, entry `O=C(c1ccccc1)N(C(=S)NCCc1ccc(Cl)cc1)c1ccc(Cl)cc1` — outcome? no (0)

Assay result, entry `Oc1c(CN2CCN(c3ccccc3F)CC2)cc(Br)c2cccnc12` — outcome? yes (1)

Assay result, entry COc1ccc(C2=NN(/C=C3\SC(=O)NC3=Nc3ccc(F)cc3)C(c3ccc(F)cc3)C2)cc1 (stereo not given) — outcome? no (0)

Assay result, entry `COC(=O)/C(CCC=C(C)C)=C1\[C@@H](OC(C)=O)C[C@@]2(C)[C@H]1C[C@@H](O)[C@H]1[C@@]3(C)CC[C@H](NCCCNCCCCNCCCN)[C@@H](C)[C@@H]3CC[C@@]12C` — outcome? no (0)

Assay result, entry O=C(CN1C=NC2C(N3CCOCC3)=NC=NC21)c1cccc2ccccc12 (stereo not given) — outcome? no (0)

Assay result, entry `COc1cc2nc(-c3cccc4cccnc34)nc(NC3CCN(Cc4ccccc4)CC3)c2cc1OC` — outcome? yes (1)

Assay result, entry `CCOC(=O)C(CC(=O)O)=C(C(=O)OCC)C(=O)OCC` — outcome? no (0)

Assay result, entry `Clc1ccc(Nc2scc3[n+]2CCC3)cc1` — outcome? no (0)

Assay result, entry `COc1ccc(CCN2CCC(CN(C)Cc3cnn(-c4ccccc4)c3)CC2)cc1` — outcome? no (0)

Assay result, entry `Cn1c(C(=O)c2cccc3ccccc23)nc2ccccc21` — outcome? no (0)

Assay result, entry `CCCc1c(C)c2sc(=O)[nH]c2[nH]c1=O` — outcome? no (0)

Assay result, entry `COc1ccc(-c2cn[nH]c2-c2cc(OC)c(OC)c(OC)c2)cc1OCc1ccccc1` — outcome? no (0)
